- Test system: vGLUT1- bzw. vGLUT2-Transporter
- test_method_notes: Glutamate uptake in rat crude synaptic vesicles ([3H]-glutamate)
- Format: biochemical, Ratte
- experimental_conditions: test concentration not given
Measured vGLUT (Ratte), Hemmung [%] values are reported for all entries that follow.
measurement_name: vGLUT (Ratte), Hemmung [%] (%)

>>> df
                                   molecule            measurement_name  unit_spec  recorded_value
0  O=C(Nc1ccc(-c2ccc(NC(=O)c3ccccc3)c(C(=O)[O-])c2)cc1C(=O)[O-])c1ccccc1.[Na+].[Na+]  vGLUT (Ratte), Hemmung [%]          %             102
1     Nc1ccc(-c2ccc(N)c(C(=O)O)c2)cc1C(=O)O  vGLUT (Ratte), Hemmung [%]          %              24
2  Nc1ccccc1C(=O)Nc1ccc(-c2ccc(NC(=O)c3ccccc3N)c(C(=O)O)c2)cc1C(=O)O [Beispiel 13]  vGLUT (Ratte), Hemmung [%]          %              96
3  Nc1ccccc1C(=O)Nc1ccc(-c2ccc(NC(=O)c3ccccc3N)c(C(=O)O)c2)cc1C(=O)O [Beispiel 4]  vGLUT (Ratte), Hemmung [%]          %              99
